- target_entity: CDK1 CCNA2 (human) (UniProt P06493+P20248)
- Sequence (P06493 whole entry, looked up): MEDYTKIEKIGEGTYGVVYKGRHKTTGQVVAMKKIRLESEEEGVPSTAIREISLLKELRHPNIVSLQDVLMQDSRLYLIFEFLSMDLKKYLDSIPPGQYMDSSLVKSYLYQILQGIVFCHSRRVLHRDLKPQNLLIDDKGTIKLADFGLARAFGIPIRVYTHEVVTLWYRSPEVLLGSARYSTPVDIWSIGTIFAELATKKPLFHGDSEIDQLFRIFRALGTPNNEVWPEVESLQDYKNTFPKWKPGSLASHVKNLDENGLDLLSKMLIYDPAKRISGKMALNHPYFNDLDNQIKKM
- Sequence (P20248 whole entry, looked up): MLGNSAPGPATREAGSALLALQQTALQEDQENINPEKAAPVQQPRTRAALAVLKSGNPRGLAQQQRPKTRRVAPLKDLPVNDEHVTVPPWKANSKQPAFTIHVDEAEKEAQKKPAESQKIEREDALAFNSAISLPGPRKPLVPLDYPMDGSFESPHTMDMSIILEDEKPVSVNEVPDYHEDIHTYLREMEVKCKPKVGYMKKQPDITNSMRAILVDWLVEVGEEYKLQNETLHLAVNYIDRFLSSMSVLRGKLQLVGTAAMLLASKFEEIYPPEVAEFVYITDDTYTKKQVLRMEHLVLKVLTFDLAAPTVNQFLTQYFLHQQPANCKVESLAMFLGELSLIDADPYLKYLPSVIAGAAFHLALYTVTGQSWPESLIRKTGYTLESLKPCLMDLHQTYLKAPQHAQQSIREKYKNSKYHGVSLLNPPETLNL
- measurement_protocol: radiometric filter-binding kinase assay, Kinase HotSpot
- test_conditions: compound 0.5 µM; ATP 10 µM
readout_kind: residual activity (%)

{"chemical_structure": "COc1cc(Nc2c(C#N)cnc3cc(OCCCN4CCN(C)CC4)c(OC)cc23)c(Cl)cc1Cl", "target_entity": "CDK1 CCNA2 (human) (UniProt P06493+P20248)", "readout_kind": "residual activity", "output_unit": "%", "obs_value": 96.9}
{"chemical_structure": "Cc1cn(-c2cc(NC(=O)c3ccc(C)c(Nc4nccc(-c5cccnc5)n4)c3)cc(C(F)(F)F)c2)cn1", "target_entity": "CDK1 CCNA2 (human) (UniProt P06493+P20248)", "readout_kind": "residual activity", "output_unit": "%", "obs_value": 99.7}
{"chemical_structure": "COc1cc2ncnc(Nc3ccc(Oc4ccccc4)cc3)c2cc1OC", "target_entity": "CDK1 CCNA2 (human) (UniProt P06493+P20248)", "readout_kind": "residual activity", "output_unit": "%", "obs_value": 92.2}
{"chemical_structure": "CN1CCN(c2ccc3nc(-c4c(N)c5c(F)cccc5[nH]c4=O)[nH]c3c2)CC1", "target_entity": "CDK1 CCNA2 (human) (UniProt P06493+P20248)", "readout_kind": "residual activity", "output_unit": "%", "obs_value": 93.6}
{"chemical_structure": "CN(C)CCCn1cc(C2=C(c3c[nH]c4ccccc34)C(=O)NC2=O)c2ccccc21", "target_entity": "CDK1 CCNA2 (human) (UniProt P06493+P20248)", "readout_kind": "residual activity", "output_unit": "%", "obs_value": 100}

====

- target_entity: CDK5 CDK5R1 p25 (human) (UniProt Q00535+Q15078)
- Sequence (Q00535 whole entry, looked up): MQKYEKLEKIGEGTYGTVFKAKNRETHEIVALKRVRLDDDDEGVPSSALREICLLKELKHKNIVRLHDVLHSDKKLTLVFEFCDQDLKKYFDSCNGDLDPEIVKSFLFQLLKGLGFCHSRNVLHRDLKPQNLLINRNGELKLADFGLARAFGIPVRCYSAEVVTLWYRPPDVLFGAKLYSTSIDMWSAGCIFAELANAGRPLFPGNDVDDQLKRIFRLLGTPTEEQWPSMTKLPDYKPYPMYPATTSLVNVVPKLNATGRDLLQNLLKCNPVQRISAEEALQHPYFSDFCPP
- Sequence (Q15078 whole entry, looked up): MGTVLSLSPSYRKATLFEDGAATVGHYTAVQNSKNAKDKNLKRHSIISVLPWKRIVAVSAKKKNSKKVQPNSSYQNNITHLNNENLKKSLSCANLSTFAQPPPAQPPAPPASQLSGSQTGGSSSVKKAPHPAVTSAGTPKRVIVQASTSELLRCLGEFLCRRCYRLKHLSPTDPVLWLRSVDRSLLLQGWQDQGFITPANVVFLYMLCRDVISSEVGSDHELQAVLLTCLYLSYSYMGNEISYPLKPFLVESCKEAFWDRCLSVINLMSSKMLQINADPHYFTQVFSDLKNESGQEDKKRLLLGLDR
- measurement_protocol: radiometric filter-binding kinase assay, Kinase HotSpot
- test_conditions: compound 0.5 µM; ATP 10 µM

{"chemical_structure": "O=C1Nc2ccc(Br)cc2/C1=C\\c1cc2c([nH]1)CCCC2", "output_unit": "%", "residual activity": 91.3}
{"chemical_structure": "Cc1cccc(-c2nc(C(C)(C)C)[nH]c2-c2ccc3c(c2)OCO3)n1", "output_unit": "%", "residual activity": 90.1}
{"chemical_structure": "c1ccc2c(-c3ccncc3)c[nH]c2c1", "output_unit": "%", "residual activity": 92}
{"chemical_structure": "NCCNc1ncc(C(N)=O)c(Nc2cccc(C(F)(F)F)c2)n1", "output_unit": "%", "residual activity": 92.4}
{"chemical_structure": "COc1cc2ncnc(Nc3ccc(Oc4ccccc4)cc3)c2cc1OC", "output_unit": "%", "residual activity": 88.8}
{"chemical_structure": "O=C1NC(=O)c2c1c1c3ccccc3[nH]c1n1cncc21", "output_unit": "%", "residual activity": 89.4}

====

- target_entity: GSG2 (human)
- measurement_protocol: radiometric filter-binding kinase assay, Kinase HotSpot
- test_conditions: compound 0.5 µM; ATP 10 µM
readout_kind: residual activity (%)

{"chemical_structure": "c1ccc2c(-c3ccncc3)c[nH]c2c1", "output_unit": "%", "obs_value": 62.3}
{"chemical_structure": "COc1cc(Nc2c(C#N)cnc3cc(OCCCN4CCN(C)CC4)c(OC)cc23)c(Cl)cc1Cl", "output_unit": "%", "obs_value": 65.6}
{"chemical_structure": "CCCCc1c(-c2ccc(OC)cc2)[nH]c2nccnc12", "output_unit": "%", "obs_value": 80}
{"chemical_structure": "O=C(c1cc2cc(O)ccc2[nH]1)c1cc2cc(O)ccc2[nH]1", "output_unit": "%", "obs_value": 34.8}
{"chemical_structure": "Cc1nc(-c2ccccc2)c(-c2ccncc2)o1", "output_unit": "%", "obs_value": 87.6}
{"chemical_structure": "CC(C)(C)c1cc(C=C(C#N)C#N)cc(Br)c1O", "output_unit": "%", "obs_value": 67.2}
{"chemical_structure": "COc1ccc(Cl)cc1NC(=O)Nc1cc(C)nc2ccccc12", "output_unit": "%", "obs_value": 95.7}
{"chemical_structure": "CN(C)S(=O)(=O)c1ccc2c(c1)/C(=C/c1cc3c([nH]1)CCCC3)C(=O)N2", "output_unit": "%", "obs_value": 116}
{"chemical_structure": "NC(=O)c1cccc(-c2cc(Nc3ccc(OC(F)(F)F)cc3)ncn2)c1", "output_unit": "%", "obs_value": 105}
{"chemical_structure": "CS(=O)(=O)CCNCc1ccc(-c2ccc3ncnc(Nc4ccc(OCc5cccc(F)c5)c(Cl)c4)c3c2)o1", "output_unit": "%", "obs_value": 66.5}
{"chemical_structure": "COc1ccc2c(c1)c(C1=C(c3c[nH]c4ccccc34)C(=O)NC1=O)cn2CCCN(C)C", "output_unit": "%", "obs_value": 93.5}
